- Species on record: Canis familiaris
- Measurement protocol: Effective dose required to induce constriction of dog saphenous vein segments
- Format: functional
- Test conditions: Canis lupus familiaris, read-out: ED50 (the source's name)
Recorded EC50 values for a group of molecules are listed next.
Measurement label: EC50

molecule="CC1(CNCCCNC2=NCCCN2)CCc2ccccc2O1 (centres undefined)" result="> 1000 nM"
molecule="c1cnc(NCCCNCC2CCc3ccccc3O2)nc1 (centres undefined)" result="> 100 nM"
molecule="CN1c2ccccc2CCC1CNCCCNC1=NCCCN1 (centres undefined)" result="> 1000 nM"
molecule="c1ccc2c(c1)CCC(CNCCCNc1nc3ccccc3[nH]1)O2 (centres undefined)" result="> 1000 nM"
